Assay: Lethal dose against HeLa cells, from a human cervix epitheloid carcinoma
Type: toxicity, cell-based
Details: read-out: LD50 (the source's name)
measure_name: CC50

Tell me measured CC50 for CCN(CCNC)CCNC[C@H](O)[C@@H](O)[C@H](O[C@@H]1O[C@H](CO)C(O)[C@H](O)[C@H]1O)[C@H](O)CO (stereo partly specified) please.
> 300 µM
